biological target: T1, biotinylated hBLyS-ECD (human, UniProt Q9Y275 134-285, biotinylated with Biotin-X-X-NHS (molar ratio 7:1), sites not stated); assay: ELISA, biotinylated hBLyS-ECD captured on streptavidin; antibody 0.0213 nM
T1 construct: The hBLyS-ECD of Embodiment 1 after biotinylation (Embodiment 2); also called biotinylated immunogen; BLyS protein; not shown: His tag of the pCPC vector
T1 sequence (Q9Y275 134-285): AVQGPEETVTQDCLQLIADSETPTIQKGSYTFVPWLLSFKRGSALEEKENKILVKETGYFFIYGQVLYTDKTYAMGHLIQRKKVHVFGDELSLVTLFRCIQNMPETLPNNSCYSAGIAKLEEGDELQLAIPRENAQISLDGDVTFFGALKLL
ENDPOINT: OD450 nm
Numbers only.

Use the examples below as a reference point.
>>> assay_result("111D10D6G3 (antibody, V domains shown, Mouse hybridoma antibody purified on Protein G) VH: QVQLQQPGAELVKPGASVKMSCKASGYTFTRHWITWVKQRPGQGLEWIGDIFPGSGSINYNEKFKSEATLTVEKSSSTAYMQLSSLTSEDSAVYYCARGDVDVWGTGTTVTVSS VL: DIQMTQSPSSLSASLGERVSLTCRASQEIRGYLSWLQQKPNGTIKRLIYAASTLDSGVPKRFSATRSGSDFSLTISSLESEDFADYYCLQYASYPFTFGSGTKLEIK")
0.194
>>> assay_result("L1D12 (antibody, human IgG1, V domains shown, also called LID12) VH: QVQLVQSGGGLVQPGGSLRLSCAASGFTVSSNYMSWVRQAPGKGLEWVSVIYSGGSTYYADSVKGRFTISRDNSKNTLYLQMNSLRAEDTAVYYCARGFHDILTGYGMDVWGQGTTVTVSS VL: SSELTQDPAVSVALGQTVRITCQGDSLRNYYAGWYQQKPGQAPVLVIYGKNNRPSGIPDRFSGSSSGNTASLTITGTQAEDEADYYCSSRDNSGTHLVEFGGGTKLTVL")
0.262
>>> assay_result("L9G7 (antibody, human IgG1, V domains shown) VH: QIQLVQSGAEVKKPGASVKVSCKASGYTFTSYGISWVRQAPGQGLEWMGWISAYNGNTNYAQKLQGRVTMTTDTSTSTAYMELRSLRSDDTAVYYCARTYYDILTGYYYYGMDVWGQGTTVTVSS VL: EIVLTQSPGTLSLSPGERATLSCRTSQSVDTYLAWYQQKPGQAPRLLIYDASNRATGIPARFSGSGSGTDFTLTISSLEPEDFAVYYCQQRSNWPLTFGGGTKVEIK")
0.181

// moving on: another record for OD450 nm
Query: OD450 nm for 97A3C2H4 (antibody, V domains shown, Mouse hybridoma antibody purified on Protein G) VH: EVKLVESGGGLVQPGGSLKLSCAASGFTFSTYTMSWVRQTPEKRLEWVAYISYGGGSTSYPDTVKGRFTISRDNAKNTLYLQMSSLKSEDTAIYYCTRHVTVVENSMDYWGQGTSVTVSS VL: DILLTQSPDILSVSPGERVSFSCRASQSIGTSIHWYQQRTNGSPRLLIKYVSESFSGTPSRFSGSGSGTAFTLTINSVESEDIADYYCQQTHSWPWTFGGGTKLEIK ?
Reply: 0.283
